- testedSystem: rCRFBP (Rattus norvegicus)
- Construct: made in house; host or cells: HEK 293 cells, stably transfected (pcDNA3); serum-free conditioned medium used directly
- Sequence (P24388 25-322): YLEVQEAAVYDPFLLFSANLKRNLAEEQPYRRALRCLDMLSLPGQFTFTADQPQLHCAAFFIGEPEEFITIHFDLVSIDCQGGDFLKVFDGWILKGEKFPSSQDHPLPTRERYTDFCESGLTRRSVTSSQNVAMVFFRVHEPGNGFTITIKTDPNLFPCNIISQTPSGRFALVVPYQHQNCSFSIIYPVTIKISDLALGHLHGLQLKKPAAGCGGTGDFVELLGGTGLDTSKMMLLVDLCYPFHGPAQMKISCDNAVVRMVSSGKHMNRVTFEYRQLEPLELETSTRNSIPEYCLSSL
- assayExplanation: Radioligand binding assay (charcoal precipitation, 3H-rUcn) for affinity to rCRFBP
- testConditions: mean ± S.E.M. of three independent experiments in duplicate; 3H-rUcn radioligand; Cheng-Prusoff; read-out: Inhibition constants (Kl)
- Procedure: The peptides were tested for their affinity to rCRFBP on the basis of a charcoal precipitation assay utilizing tritiated Ucn as radioligand (21). […] After centrifugation for 2 min at 12000×g, 200 μl supernatant was removed, mixed with 2 ml Ecolume liquid scintillation cocktail (ICN Biomedicals, Irvine, Calif.), and counted for 3 min in a Wallac 1209 Rackbeta liquid scintillation counter (Wallac, Turku, Finland). […]
pKi: −log10 of the molar value. No end group written: not given here.

{"substance": "LSIDLTFHLLRTLLELARTQSQRERAEQ-OH [Compound 7, rUcn^5-32, reference compound]", "pKi": 8.96}
